test system: glycogen synthase kinase-3 (GSK3A per assay name; protocol says GSK3B); assay: compounds binding glycogen synthase kinase-3 – biochemical, small-molecule microarray, 635 nm fluorescence, GSK3A, primary screen (AID 1103); details: fluorescence 635 nm, higher = more signal; also: the record names both GSK3A and GSK3B
recorded metric: composite z-score

Exercise: Tell me composite z-score reported for [N-]=[N+]=NCc1ccccc1[C@H]1OC(c2ccc(OCCCO)cc2)=N[C@@]1(Cc1ccccc1)C(=O)O
Key: 0.51

Exercise: Annotate the compound CC(C)OC(=O)C1=CCC(c2cccc(Cl)c2)O1 (stereo not drawn) with its measured composite z-score.
Key: -0.33

Exercise: Recall and state the measured composite z-score for C=C(CCCC)/C(=C/C[C@H](OC(C)=O)c1ccc(CO)o1)c1cc(C(=O)OC)ccc1OC .
Key: 0.469

Exercise: Find the measured composite z-score of C=CCN1C(=O)[C@]2(Cc3ccccc31)N=C(c1ccc(OCCCO)cc1)O[C@@H]2c1ccccc1 and report it.
Key: 0.881

Exercise: Tell me composite z-score reported for CN(C)CCCCCCNC(=O)[C@@H]1C[C@@H]2C(=O)NCC(=O)N2[C@@H]1c1cccc(OCCO)c1
Key: 1.36

Exercise: Give reported composite z-score value for CCCCC(=C=CC[C@H](O)c1ccccc1OCCO)C[C@H](O)c1cc(Cl)cc(Cl)c1O
Key: 0.24

Exercise: Give me measured composite z-score, please, for this compound: CCOC(=O)C[C@H]1[C@H](OC(=O)c2cc3ccccc3oc2=O)[C@@H](NC(=O)c2ccc3ccccc3c2)c2cc(OCCCO)ccc2N1C(=O)c1ccccc1
Key: 0.939

Exercise: Write down composite z-score measured for item C=CCC(OC(C)=O)[C@@H]1[C@@H](N(Cc2cc3ccccc3o2)C(=O)c2cccc3ccccc23)c2cc(OCCCO)ccc2N1C(=O)Cc1ccc(OC)cc1 (stereo partly drawn)
Key: 0.12

###

assay: optical density shifts of acrAB sulA E. coli – strain DRC41, OD650, 48 h, E. coli filamentation inducer project, primary screen (AID 1152); conditions: higher = more signal, called active from +8 up or from −8 down;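 also: E. coli MC1000 strain DRC41 lacking acrAB efflux pump and sulA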
Categories are assigned from the measured z-score using these intervals: lo: < -0.7; med: ≥ -0.7 and < 0.9; hi: ≥ 0.9

Before answering, review these 5 worked examples.
CCCC[C@@H]1C[C@H]1[C@@H](NC(=O)c1ccco1)c1ccccc1	lo
CCOC(=O)N1C(c2ccc(OCCCO)cc2)=NC(C(=O)OC)N1C(=O)OCC (stereo unspecified)	hi
CC(=O)N1Cc2ccccc2C[C@@]2(N=C(c3ccc(OCCCO)cc3)O[C@H]2c2ccccc2)C1=O	hi
Cc1ccc([C@H]2C(C(=O)O)=C[C@@H](C(C)C)N2S(=O)(=O)c2ccc(C)cc2)cc1	lo
[N-]=[N+]=NCc1ccccc1C[C@]1(C(=O)NCc2ccccc2)COC(c2ccc(OCCCO)cc2)=N1	med

Exercise: Consider COc1ccc(C(=O)Nc2cccc(CN3C(=O)[C@@]4(O[C@@H](CCn5cc([C@H](O)c6ccccc6)nn5)[C@H]([Si](C)(C)c5ccc(OC)cc5)[C@H]4C)c4ccccc43)c2)cc1 . To which z-score class does it belong?
Key: med

###

test: inhibition of PAO1 biofilm formation – strain PAO1, LB-PBS medium, absorbance 600 nm, primary screen (AID 1176); also: test concentration not given here; details: P. aeruginosa PAO1 growth/biofilm, A600, 12 h; higher = more signal
recorded metric: z-score
Give the figure only, with no unit attached.

// solved cases for z-score follow
C=C[C@H](C)[C@H](O)c1ccc(OCCO)cc1	0.261
C=CCC(OC(C)=O)[C@@H]1[C@@H](N(Cc2cc3ccccc3o2)C(=O)c2cccc3ccccc23)c2cc(OCCCO)ccc2N1C(=O)Cc1ccc(OC)cc1 (some centres undefined)	-0.334
Cc1ccc(N2C(=O)c3ccccc3[C@@H](C(=O)NCC(C)C)[C@@H]2c2ccc(CO)cc2)nc1	0.348

// next entry
Exercise: Identify measured z-score corresponding to CCN(CC)c1ccc(N2CC=CC34O[C@@H]5/C=C\CCCOC(=O)C5[C@H]3C(=O)N(CCCO)[C@@H]4C2=O)cc1 (some centres undefined)
Key: 0.053
